# Target: HLA-A*02:01 (Homo sapiens, UniProt P04439, D140Y/D185E/D98H/E176V/E277Q/G131W/G231S/I119V/I121R/I166T/I218V/L300P/L318F/N151K/N90K/P208A/P217A/Q86G/Q94H/R138H/R169H/T345S)
# Assay remarks: MHC binding assay (UV-ligand exchange, anti-β2m ELISA, peptide exchange yield)
# Condition set: binding to HLA-A*02:01
Metric name: Peptide exchange (MHC class I binding score, peptide exchange yield)

117 (ILPDGEDFLAV; listed as Homo sapiens) [compound 117] : “+++” (>50 = +++)
500 (SLMEDQVLQL; listed as Homo sapiens) [compound 500] : “+++” (>50 = +++)
564 (TVTNAVVTV; listed as Homo sapiens) [compound 564] : “+++” (>50 = +++)
485 (NVPDSFNEV; listed as Homo sapiens) [compound 485] : “+++” (>50 = +++)
241 (SLVEVNPAYSV; listed as Homo sapiens) [compound 241] : “+++” (>50 = +++)
364 (LLQNEQFEL; listed as Homo sapiens) [compound 364] : “+++” (>50 = +++)
575 (YLISQVEGHQV; listed as Homo sapiens) [compound 575] : “+++” (>50 = +++)
46 (ILTEENIHL; listed as Homo sapiens) [compound 46] : “+++” (>50 = +++)
262 (LLWGDLIWL; listed as Homo sapiens) [compound 262] : “+++” (>50 = +++)
55 (SLLDLETLSL; listed as Homo sapiens) [compound 55] : “++++” (>75% = ++++)
345 (VIWKALIHL; listed as Homo sapiens) [compound 345] : “+++” (>50 = +++)
61 (FLQGYQLHL; listed as Homo sapiens) [compound 61] : “++++” (>75% = ++++)
551 (KLYESLLPFA; listed as Homo sapiens) [compound 551] : “+++” (>50 = +++)
148 (ALNPEIVSV; listed as Homo sapiens) [compound 148] : “++” (>20% = ++)
16 (VLFQGQASL; listed as Homo sapiens) [compound 16] : “+++” (>50 = +++)
249 (LLDGFLVNV; listed as Homo sapiens) [compound 249] : “+++” (>50 = +++)
74 (ALLDPEVLSIFV; listed as Homo sapiens) [compound 74] : “+++” (>50 = +++)
363 (KVLDVSDLESV; listed as Homo sapiens) [compound 363] : “++” (>20% = ++)

====

# Target: HLA-A*02:01 (Homo sapiens, UniProt P04439, D140Y/D185E/D98H/E176V/E277Q/G131W/G231S/I119V/I121R/I166T/I218V/L300P/L318F/N151K/N90K/P208A/P217A/Q86G/Q94H/R138H/R169H/T345S)
# Assay remarks: MHC binding assay (UV-ligand exchange, anti-β2m ELISA, peptide exchange yield)
# Condition set: binding to HLA-A*02:01
Metric name: Peptide exchange (MHC class I binding score, peptide exchange yield)

127 (KIGDEPPKV; listed as Homo sapiens) [compound 127] : “++” (>20% = ++)
454 (KLPPPPPQA; listed as Homo sapiens) [compound 454] : “+++” (>50 = +++)
219 (KLSDIGITV; listed as Homo sapiens) [compound 219] : “+++” (>50 = +++)
82 (FLSSVTYNL; listed as Homo sapiens) [compound 82] : “+++” (>50 = +++)
344 (YLQDQHLLLTV; listed as Homo sapiens) [compound 344] : “+++” (>50 = +++)
24 (SLSDGLEEV; listed as Homo sapiens) [compound 24] : “++” (>20% = ++)
394 (LLAVIGGLVYL; listed as Homo sapiens) [compound 394] : “+++” (>50 = +++)
537 (TLAPGEVLRSV; listed as Homo sapiens) [compound 537] : “+++” (>50 = +++)
56 (KLYEGIPVLL; listed as Homo sapiens) [compound 56] : “++++” (>75% = ++++)
576 (ILLNNSGQIKL; listed as Homo sapiens) [compound 576] : “++++” (>75% = ++++)
266 (KITDTLIHL; listed as Homo sapiens) [compound 266] : “+++” (>50 = +++)
139 (SVMEVNSGIYRV; listed as Homo sapiens) [compound 139] : “+++” (>50 = +++)
233 (VLSETLYEL; listed as Homo sapiens) [compound 233] : “++” (>20% = ++)
110 (FLSQVDFEL; listed as Homo sapiens) [compound 110] : “+++” (>50 = +++)
496 (FLVEKQPPQV; listed as Homo sapiens) [compound 496] : “+++” (>50 = +++)
489 (KMWEELPEVV; listed as Homo sapiens) [compound 489] : “+++” (>50 = +++)
600 (ALAAPDIVPAL; listed as Homo sapiens) [compound 600] : “+++” (>50 = +++)
390 (ALFMKQIYL; listed as Homo sapiens) [compound 390] : “+++” (>50 = +++)
145 (FLATSGTLAGI; listed as Homo sapiens) [compound 145] : “++” (>20% = ++)
158 (KLFDVDEDGYI; listed as Homo sapiens) [compound 158] : “+++” (>50 = +++)
128 (YLFDDPLSAV; listed as Homo sapiens) [compound 128] : “++” (>20% = ++)
589 (KLYPQLPAEI; listed as Homo sapiens) [compound 589] : “+++” (>50 = +++)
309 (GLFDGVPTTA; listed as Homo sapiens) [compound 309] : “+++” (>50 = +++)
208 (KISPVTFSV; listed as Homo sapiens) [compound 208] : “+++” (>50 = +++)
102 (YLFESEGLVL; listed as Homo sapiens) [compound 102] : “+++” (>50 = +++)
389 (LLADVTHLL; listed as Homo sapiens) [compound 389] : “++” (>20% = ++)
433 (AMLNEPWAV; listed as Homo sapiens) [compound 433] : “+++” (>50 = +++)
596 (ALLDQTKTLAESAL; listed as Homo sapiens) [compound 596] : “+++” (>50 = +++)
528 (SVAEGRALMSV; listed as Homo sapiens) [compound 528] : “+++” (>50 = +++)
179 (KVLNELYTV; listed as Homo sapiens) [compound 179] : “+++” (>50 = +++)

====

# Target: HLA-A*02:01 (Homo sapiens, UniProt P04439, D140Y/D185E/D98H/E176V/E277Q/G131W/G231S/I119V/I121R/I166T/I218V/L300P/L318F/N151K/N90K/P208A/P217A/Q86G/Q94H/R138H/R169H/T345S)
# Assay remarks: MHC binding assay (UV-ligand exchange, anti-β2m ELISA, peptide exchange yield)
# Condition set: binding to HLA-A*02:01
Metric name: Peptide exchange (MHC class I binding score, peptide exchange yield)

166 (YLNHLEPPV; listed as Homo sapiens) [compound 166] : “+++” (>50 = +++)
333 (FLPDANSSV; listed as Homo sapiens) [compound 333] : “++” (>20% = ++)
466 (VLIANLEKL; listed as Homo sapiens) [compound 466] : “++++” (>75% = ++++)
129 (GLLDGGVDILL; listed as Homo sapiens) [compound 129] : “+++” (>50 = +++)
590 (SLIEKLWQT; listed as Homo sapiens) [compound 590] : “++” (>20% = ++)
381 (FIDEAYVEV; listed as Homo sapiens) [compound 381] : “++” (>20% = ++)
223 (ALLENIALYL; listed as Homo sapiens) [compound 223] : “+++” (>50 = +++)
44 (ILDPISSGFLL; listed as Homo sapiens) [compound 44] : “++” (>20% = ++)
184 (YLMDINGKMWL; listed as Homo sapiens) [compound 184] : “+++” (>50 = +++)
493 (GLLGEKTQDLIGV; listed as Homo sapiens) [compound 493] : “+++” (>50 = +++)
306 (ALVNVQIPL; listed as Homo sapiens) [compound 306] : “+++” (>50 = +++)
514 (ILVDWLVQV; listed as Homo sapiens) [compound 514] : “+++” (>50 = +++)
141 (YLDFSNNRL; listed as Homo sapiens) [compound 141] : “++” (>20% = ++)
143 (LLLDITPEI; listed as Homo sapiens) [compound 143] : “++++” (>75% = ++++)
366 (RLLDMGETDLML; listed as Homo sapiens) [compound 366] : “+++” (>50 = +++)
335 (YSLSSVVTV; listed as Homo sapiens) [compound 335] : “+++” (>50 = +++)
209 (KLIESKHEV; listed as Homo sapiens) [compound 209] : “++” (>20% = ++)
10 (FLATFPLAAV; listed as Homo sapiens) [compound 10] : “++++” (>75% = ++++)
239 (AAFAGKLLSV; listed as Homo sapiens) [compound 239] : “+++” (>50 = +++)
192 (KMLDGASFTL; listed as Homo sapiens) [compound 192] : “+++” (>50 = +++)
346 (LLDSKVPSV; listed as Homo sapiens) [compound 346] : “+++” (>50 = +++)
248 (FLFPNQYVDV; listed as Homo sapiens) [compound 248] : “+++” (>50 = +++)
548 (ALWENPESGEL; listed as Homo sapiens) [compound 548] : “++” (>20% = ++)
